- Protocol Details: qHTS Validation assay for Inhibitors of Plasmodium falciparum Dd2 growth in vitro; also: nearly all actives have a fitted effect of over 70% in size
- Condition Set: P. falciparum Dd2 in RBCs, SYBR Green growth, 72 h; series mostly up to 28.7 µM
Among all 4,100 compounds or so, about 1,600 (39%) were called active. Not shown: some 25% with an inconclusive outcome. Calls follow the shape of the dose curve; as a rule, active = well fitted inhibition curve with a large enough effect; inconclusive = small, poorly fitted or top-dose-only effect; inactive = no such curve, though single readings can be large or run the other way. Some of the results follow.
Labels: 1.0 = active, 0.0 = inactive

Compound | Discrete Label
CCN(CC)CCNC(=O)c1cn(CC)c2ccc(S(=O)(=O)N3CCOCC3)cc2c1=O | 0.0
CCOC(=O)c1c(C)[nH]c(C(=O)OCc2c(C)noc2C)c1C | 0.0
Cc1ccc(-n2cc(-c3ccccc3)nc2S(=O)(=O)CC(=O)Nc2ccc(F)cc2)cc1 | 0.0
CCOc1ccc(NC(=O)c2nnn3cc(C)[nH]c(=O)c23)cc1 | 1.0
Cc1cccnc1CNC[C@H]1O[C@@H]2C[C@@H](CC(=O)N3CCOCC3)O[C@@H]2[C@@H]1O | 0.0
CN1CCC(Nc2ncc3ncnc(Nc4ccc(F)c(Cl)c4)c3n2)CC1 | 1.0
COc1ccc(C2c3[nH]c4ccccc4c3C[C@H]3C(=O)N(C4CCN(Cc5ccccc5)CC4)CC(=O)N23)c(OC)c1 (stereo partly specified) | 1.0
Cc1cc(NCc2ccco2)nc2cc(O)ccc12 | 1.0
Cc1cc(Nc2ccccc2)nc2cc(O)ccc12 | 1.0
c1ccc([C@H]2CN3CCSC3=N2)cc1 | 0.0
CN1C(=O)C2(c3ccccc31)N(C)CC(c1ccccc1)C21SC(=S)N(Cc2ccco2)C1=O (stereo unspecified) | 1.0
Cc1nnc2n1CCC(N(C)S(=O)(=O)c1cn(C)cn1)CC2 (stereo unspecified) | 0.0
CCOC(=O)c1c(C)[nH]c(C(=O)CSc2nnc(C3CC3)n2N)c1C | 1.0
CCOc1ccccc1C1c2[nH]c3ccccc3c2C[C@H]2C(=O)N(C3CCN(Cc4ccccc4)CC3)CC(=O)N12 (stereo partly specified) | 1.0
COc1ccc(-c2nn(-c3ccc(F)cc3)c(OC(C)=O)c2-c2ccc(NC(C)=O)cc2)cc1OC | 1.0
Cc1cccc(CNC(=O)c2nnn3cc(C)[nH]c(=O)c23)c1 | 0.0
O=C(c1cc2c(s1)CCCC2)N1CCc2c(nc3cc[nH]n3c2=O)C1 | 0.0
Cc1cc(N(C)Cc2ccccc2)nc2cc(O)ccc12 | 1.0
Cc1cc(=O)n(CC(=O)NCc2ccccc2Br)c(N(C)Cc2ccccc2)n1 | 0.0
COc1ccccc1C1c2[nH]c3ccccc3c2C[C@H]2C(=O)N(C3CCN(Cc4ccccc4)CC3)CC(=O)N12 (stereo partly specified) | 1.0
CCOC(=O)C(C)/C(C)=N/NC(N)=S (stereo unspecified) | 1.0
